- target-entity: human P2X3 receptor (Homo sapiens, UniProt P56373)
- Sequence (P56373 whole entry): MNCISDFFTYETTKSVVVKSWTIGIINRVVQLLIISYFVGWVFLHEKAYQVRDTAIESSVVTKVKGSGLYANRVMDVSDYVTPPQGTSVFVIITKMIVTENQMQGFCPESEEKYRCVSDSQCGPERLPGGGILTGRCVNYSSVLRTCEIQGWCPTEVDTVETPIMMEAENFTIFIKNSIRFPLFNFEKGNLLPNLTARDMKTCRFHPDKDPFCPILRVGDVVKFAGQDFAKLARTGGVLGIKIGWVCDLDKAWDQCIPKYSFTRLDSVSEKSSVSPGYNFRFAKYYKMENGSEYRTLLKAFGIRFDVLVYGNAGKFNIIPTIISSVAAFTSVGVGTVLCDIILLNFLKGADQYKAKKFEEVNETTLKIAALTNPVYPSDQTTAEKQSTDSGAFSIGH
- assay-comment: Intracellular calcium measurement to assess antagonist activity at human P2X3 receptors (hP2X3 FLIPR)
- Format: cell-based
- Parameters: expressed in transfected cells; host or cells: human astrocytoma 1321N1 (1312N1 [sic])
- test-conditions: head prints (1321N1); read-out: 1) hP2X3 IC50 [nM] (1321N1)
property-name: IC50 (nM)

Solved cases below.
COC[C@H](C)N1Cc2c(n(CC(=O)Nc3ccc(F)cn3)c3cc(C(F)(F)F)nn3c2=O)C1=O [Example 37]: 82
CC[C@H](C)N1Cc2c(n(CC(=O)Nc3ccc(C)cn3)c3cc(C(F)(F)F)nn3c2=O)C1=O [Example 21]: 164
C[C@H](O)CN1Cc2c(n(CC(=O)Nc3ccc(F)cn3)c3cc(C(C)(C)C)nn3c2=O)C1=O [Example 54]: 215
CC(C)(C)c1cc2n(CC(=O)Nc3ccc(F)cn3)c3c(c(=O)n2n1)CN(CC1CCOCC1)C3=O [Example 28]: 146
COCCN1Cc2c(n(CC(=O)Nc3ccc(F)cn3)c3cc(C(C)(C)C)nn3c2=O)C1=O [Example 49]: 23

(1) COC[C@H](C)N1Cc2c(n(CC(=O)Nc3ccc(F)cn3)c3cc(C)nn3c2=O)C1=O [Example 41]
(2) CC(C)N1Cc2c(n(CC(=O)Nc3ccccn3)c3cc(C(C)(C)C)nn3c2=O)C1=O [Example 2]
(3) CC(C)c1cc2n(CC(=O)Nc3ccc(F)cn3)c3c(c(=O)n2n1)CN(C(C)C)C3=O [Example 7]
(4) CC(C)N1Cc2c(n(CC(=O)Nc3ccc(F)cn3)c3cc(C(F)(F)F)nn3c2=O)C1=O [Example 31]
(5) COC[C@H](C)N1Cc2c(n(CC(=O)Nc3ccc(F)cn3)c3cc(C(C)C)nn3c2=O)C1=O [Example 39]
Rank the 5 compounds: largest IC50 first, smallest last. As an answer, provide the labels arranged in the order called for.
2, 4, 1, 3, 5

(A) CC(C)[C@H](C)N1Cc2c(n(CC(=O)Nc3ccc(Cl)cn3)c3cc(C(C)(C)C)nn3c2=O)C1=O [Example 12]
(B) COC[C@@H](C)N1Cc2c(n(CC(=O)Nc3ccc(F)cn3)c3cc(C(C)(C)C)nn3c2=O)C1=O [Example 43]
(C) CC(C)N1Cc2c(n(CC(=O)Nc3ccc(F)cn3)c3ccnn3c2=O)C1=O [Example 45]
(D) Cc1ccc(NC(=O)Cn2c3c(c(=O)n4nc(C(C)(C)C)cc24)CN(C2COC2)C3=O)nc1 [Example 47]
(E) CN(C)CCN1Cc2c(n(CC(=O)Nc3ccc(F)cn3)c3cc(C(C)(C)C)nn3c2=O)C1=O [Example 139]
Order each entry by recorded IC50, climbing from the minimum. As an answer, provide the labels arranged in the order called for.
B, A, E, C, D
